assay: qHTS of pediatric cancer cell lines to identify multiple opportunities for drug repurposing: Primary screen for OHS-50 cells (AID 1347103); conditions: OHS-50 osteosarcoma viability, CellTiter-Glo luminescence, 48 h; series mostly up to 57.3 µM; note: nearly all actives have a fitted effect of over 40% in size
Inconclusive results are not listed. Calls of active or inactive are those of the source. Calls come from the whole dose curve; as a rule, active = well fitted cell-killing curve with a large enough effect; inconclusive = small, poorly fitted or top-dose-only effect; inactive = no such curve, though single readings can be large or run the other way.
Output constraint: value belongs to class 1 = active, class 0 = inactive

CCCCCCCCCCCC(=O)[O][Sn]([CH2]CCC)([CH2]CCC)[O]C(=O)CCCCCCCCCCC | class 0
CC(=O)c1ccc(OCC(=O)N2CCCCC2)cc1 | class 0
COC(=O)Nc1nc2ccc(C(=O)C3CC3)cc2[nH]1 | class 1

Request: // param item: O=C(CCN1CCN(CCO)CC1)N1c2ccccc2Sc2ccc(C(F)(F)F)cc21 ; yields the recorded call
Response: class 0

* * *

assay: qHTS assay for environmental chemicals that activate the Aryl hydrocarbon Receptor (AhR) signaling pathway (AID 651777); details: 1A2-DRE human hepatoma cells, luciferase, 24 h; hits give high values; note: % of control where 0% means no effect; nearly all actives have a fitted effect of over 15% in size
Records with an inconclusive call do not appear. Activity calls are given as the source filed them. The call rests on the fitted dose curve; in most records, active means well fitted activation curve with a large enough effect; inconclusive means small, poorly fitted or top-dose-only effect; inactive means flat fitted curve, though single readings scatter.
Measured activation of individual entries

Known activation results, listed for orientation:
NCCO | -0.695% (inactive)
C=CCCCCCCCCC(=O)O | 1.9% (inactive)
O=C1CN(/N=C/c2ccc([N+](=O)[O-])o2)C(=O)N1 | 4.15% (inactive)

Alright, here's another molecule for you.
Request: Entry Nc1cc(-c2ccncc2)c[nH]c1=O : reported activation = ?
Response: -0.684% (inactive)

* * *

Measured activity, negative = cell killing of individual entries
assay: Drug repurposing screens with cells derived from glioblastoma tumor samples (AID 1345199); conditions: GBM patient neurospheres viability, ATP luminescence, 48 h; at 45.9 µM (top of the series); tumour line B; note: % is set by controls: 0 for no effect and ±100 for the full control effect; nearly all actives have a fitted effect of over 40% in size
Inconclusive results are not listed.
All answers are understood in %, so give the number only.

Known activity, negative = cell killing results, listed for orientation:
O=C(CCN1CCN(CCO)CC1)N1c2ccccc2Sc2ccc(C(F)(F)F)cc21 | -17.6
c1ccc(CCNc2nc(-c3ccccc3)cs2)cc1 | -22.5
CCC1C(=O)OCC1Cc1cncn1C (stereo not drawn) | -2.95
O=C1CN(/N=C/c2ccc([N+](=O)[O-])o2)C(=O)N1 | -5.05
O=C(O)c1ccccc1Nc1cccc(C(F)(F)F)c1 | -9.13
COc1cc(/C=C/C(=O)N2CCN(CC(=O)N3CCCC3)CC2)cc(OC)c1OC | -11
C=CCCCCCCCCC(=O)O | -14.2
Nc1cc(-c2ccncc2)c[nH]c1=O | -15
CC(C(=O)O)c1ccc2c(c1)[nH]c1ccc(Cl)cc12 (stereo not drawn) | -6.45
O=C(O)/C=C/C(O)c1ccc(Cl)cc1 (stereo not drawn) | 1.63

Request: Entry CN1CCN(c2cc3c(nn2)Oc2ccccc2N3C)CC1 : reported activity, negative = cell killing = ?
Response: -7.46

Request: COc1cc2c3cc1Oc1cc(ccc1O)C[C@@H]1c4c(cc(OC)c(O)c4Oc4ccc(cc4)C[C@@H]3N(C)CC2)CC[N+]1(C)C
Response: 1

Request: CC[C@H]1OC(=O)[C@H](C)C(=O)[C@H](C)[C@@H](O[C@@H]2O[C@H](C)C[C@H](N(C)C)[C@H]2O)[C@](C)(OC)C[C@@H](C)C(=O)[C@H](C)[C@H]2N(CCCCn3cnc(-c4cccnc4)c3)C(=O)O[C@]12C
Response: -5.03
